- EXPERIMENTAL SYSTEM: recombinant MNK2 (Homo sapiens (Human), UniProt Q9HBH9)
- Sequence (Q9HBH9 whole entry): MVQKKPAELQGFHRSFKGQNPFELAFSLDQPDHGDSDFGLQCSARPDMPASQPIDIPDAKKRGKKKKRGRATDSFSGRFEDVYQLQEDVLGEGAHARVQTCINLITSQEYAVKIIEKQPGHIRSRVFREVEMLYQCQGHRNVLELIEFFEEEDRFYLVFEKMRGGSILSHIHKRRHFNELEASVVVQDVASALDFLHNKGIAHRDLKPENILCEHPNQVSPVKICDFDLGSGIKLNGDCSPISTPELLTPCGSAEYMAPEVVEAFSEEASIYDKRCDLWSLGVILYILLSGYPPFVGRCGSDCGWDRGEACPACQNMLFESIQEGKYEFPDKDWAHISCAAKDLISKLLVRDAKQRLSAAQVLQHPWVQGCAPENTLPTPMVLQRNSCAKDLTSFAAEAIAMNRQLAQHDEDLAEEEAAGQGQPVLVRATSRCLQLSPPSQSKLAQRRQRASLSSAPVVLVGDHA
- ASSAY: MNK biochemical enzymatic assay (ADP-Glo), MNK2
- CONDITIONS: 3 nM MNK2, 10 μM ATP
pIC50: −log10 of the molar value.
READOUT: pIC50

Completed entries (count: 5):
Cn1ncc(Nc2cc(Cl)c3n(c2=O)C2(CCCCC2)NC3=O)n1: > 8.00
O=C1NC2(CCCCC2)n2c1c(Cl)cc(Nc1ncncn1)c2=O: > 8.00
O=C1NC2(CCCCC2)n2c1c(Cl)cc(Nc1ncns1)c2=O: > 8.00
O=C1NC2(CCCCC2)n2c1c(Cl)cc(Nc1cncs1)c2=O: 7.00 to 8.00
O=C1NC2(CCCCC2)n2c1c(Cl)cc(Nc1nnco1)c2=O: 5.00 to 7.00

Query string: Find the measured pIC50 of O=C1NC2(CCCCC2)n2c1c(Cl)cc(Nc1nncs1)c2=O and report it.
Result string: 7.00 to 8.00

Query string: Find the measured pIC50 of Nc1cc(Nc2cc(Cl)c3n(c2=O)C2(CCCCC2)NC3=O)ccn1 and report it.
Result string: 7.00 to 8.00

Query string: Find the measured pIC50 of O=C1NC2(CCCCC2)n2c1c(Cl)cc(Nc1cn[nH]n1)c2=O and report it.
Result string: > 8.00

Query string: Find the measured pIC50 of O=C1NC2(CCCCC2)n2c1c(Cl)cc(Nc1cnns1)c2=O and report it.
Result string: 7.00 to 8.00

Query string: Find the measured pIC50 of O=C1NC2(CCCCC2)n2c1c(Cl)cc(Nc1ncn[nH]1)c2=O and report it.
Result string: 7.00 to 8.00

Query string: Find the measured pIC50 of O=C1NC2(CCCCC2)n2c1c(Cl)cc(Nc1cnsn1)c2=O and report it.
Result string: > 8.00
